Assay details: acute toxicity, single dose by probe into the stomach, albino mice, 3 days observation (Litchfield and Wilcoxson)
Test parameters: mouse, in vivo, po, albino mice 16-17 g, limits in parentheses
Measured quantity: LD50 at 72 h (mg/kg)

molecule="Cc1[nH]c(=O)[nH]c(=O)c1S(=O)(=O)Nc1ccc(S(=O)(=O)c2ccc(NS(=O)(=O)c3c(C)[nH]c(=O)[nH]c3=O)cc2)cc1 [preparation]" units_label=mg/kg endpoint_result=2600
